System Under Test: UniProt:P36888
Sequence (P36888 whole entry): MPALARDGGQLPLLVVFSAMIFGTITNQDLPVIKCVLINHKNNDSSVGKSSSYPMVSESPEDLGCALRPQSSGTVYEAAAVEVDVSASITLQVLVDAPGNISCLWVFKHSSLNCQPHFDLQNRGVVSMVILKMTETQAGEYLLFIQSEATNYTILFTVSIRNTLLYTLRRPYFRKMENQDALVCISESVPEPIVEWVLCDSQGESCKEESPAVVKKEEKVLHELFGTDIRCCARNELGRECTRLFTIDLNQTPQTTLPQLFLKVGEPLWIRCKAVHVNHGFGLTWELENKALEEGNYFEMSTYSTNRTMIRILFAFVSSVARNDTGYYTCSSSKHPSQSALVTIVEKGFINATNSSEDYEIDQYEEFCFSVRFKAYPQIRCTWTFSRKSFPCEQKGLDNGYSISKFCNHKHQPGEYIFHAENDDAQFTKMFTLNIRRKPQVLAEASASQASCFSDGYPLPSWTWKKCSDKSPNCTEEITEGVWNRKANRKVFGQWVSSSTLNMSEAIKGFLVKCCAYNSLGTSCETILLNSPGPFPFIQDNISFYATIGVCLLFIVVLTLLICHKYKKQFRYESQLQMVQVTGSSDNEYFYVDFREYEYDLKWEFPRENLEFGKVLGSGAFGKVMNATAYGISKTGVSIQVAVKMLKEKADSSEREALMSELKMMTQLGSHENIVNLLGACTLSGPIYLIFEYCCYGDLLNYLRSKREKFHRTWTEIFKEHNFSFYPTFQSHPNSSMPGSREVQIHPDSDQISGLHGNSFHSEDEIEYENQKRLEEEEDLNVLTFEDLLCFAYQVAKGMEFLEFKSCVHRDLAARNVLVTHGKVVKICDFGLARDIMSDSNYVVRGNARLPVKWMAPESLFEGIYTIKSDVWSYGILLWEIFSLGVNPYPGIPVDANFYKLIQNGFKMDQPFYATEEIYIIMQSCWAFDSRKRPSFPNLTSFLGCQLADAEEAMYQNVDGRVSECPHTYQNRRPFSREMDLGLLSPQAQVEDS
Measurement Name: IC50

q: Please report the recorded IC50 for CCN(CC)CCOc1ccc(Nc2cc(NC(=O)Nc3c(Cl)cccc3Cl)ncn2)cc1 .
a: > 10 µM

Reference source: ChEMBL document CHEMBL1141507
